These entries and their values trace back to patent US20250026778A1.

study_system: his-galectin-3 (Homo sapiens, UniProt P17931)
Construct: purchased Abcam
Sequence (P17931 whole entry): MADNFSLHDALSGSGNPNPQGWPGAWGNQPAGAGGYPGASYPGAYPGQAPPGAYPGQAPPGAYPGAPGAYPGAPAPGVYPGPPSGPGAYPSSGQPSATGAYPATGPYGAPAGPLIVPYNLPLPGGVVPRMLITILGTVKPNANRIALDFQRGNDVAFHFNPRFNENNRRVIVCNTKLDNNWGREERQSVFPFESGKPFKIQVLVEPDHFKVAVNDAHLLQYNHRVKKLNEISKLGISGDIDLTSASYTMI
protocol_text: TR-FRET assay (in vitro galectin-3 binding inhibitory activity test)
applied_conditions: Table 2; compound at 20 μM; 60 nM his-galectin-3, 15 nM biotin-ASF; read-out: % Inhibitory activity (at 20 μM)
metric_name: inhibition at 20 µM

Worked examples follow.
OC[C@H]1O[C@@]2(CCCN(c3ccc(Cl)cc3)C2)[C@H](O)[C@@H](n2cc(-c3cc(F)c(F)c(F)c3)nn2)[C@H]1O ... < 25%
O=C(N[C@@H]1CCO[C@]12O[C@H](CO)[C@H](O)[C@H](n1cc(-c3cc(F)c(F)c(F)c3)nn1)[C@H]2O)c1cc(=O)[nH]c2ccc(Br)cc12 ... > 75%
O=C(N[C@@H]1CCO[C@]12O[C@H](CO)[C@H](O)[C@H](n1cc(-c3cc(F)c(F)c(F)c3)nn1)[C@H]2O)c1cccc(-c2ccccc2Br)c1 ... 50 to 75%
O=C(c1ccc2ccccc2c1)N1CCC[C@]2(C1)O[C@H](CO)[C@H](O)[C@H](n1cc(-c3cc(F)c(F)c(F)c3)nn1)[C@H]2O ... < 25%
O=C(c1cccc2ccccc12)N1CCC[C@]2(C1)O[C@H](CO)[C@H](O)[C@H](n1cc(-c3cc(F)c(F)c(F)c3)nn1)[C@H]2O ... < 25%

Kindly consider the entry below.
Ask | What is its inhibition at 20 µM for his-galectin-3 (Homo sapiens, UniProt P17931)? Entry: OC[C@H]1O[C@]2(OCC[C@H]2Nc2ccccc2)[C@H](O)[C@@H](n2cc(-c3cc(F)c(F)c(F)c3)nn2)[C@H]1O
Reply | > 75%

###

study_system: his-galectin-3 (Homo sapiens)
Construct: purchased Abcam
protocol_text: TR-FRET assay (in vitro galectin-3 binding inhibitory activity test)
applied_conditions: Table 2; compound at 20 μM; 60 nM his-galectin-3, 15 nM biotin-ASF; read-out: % Inhibitory activity (at 20 μM)
metric_name: inhibition at 20 µM

OC[C@H]1O[C@@]2(CCCO2)[C@H](O)[C@@H](n2cc(-c3cc(F)c(F)c(F)c3)cn2)[C@H]1O ... 25 to 50%
O=C(N[C@@H]1CCO[C@]12O[C@H](CO)[C@H](O)[C@H](n1cc(-c3cc(F)c(F)c(F)c3)nn1)[C@H]2O)c1cccc2ccncc12 ... > 75%

Hello, I would appreciate it if you could give inhibition at 20 µM for each entry below.
1. O=C(N[C@@H]1CCO[C@]12O[C@H](CO)[C@H](O)[C@H](n1cc(-c3cc(F)c(F)c(F)c3)nn1)[C@H]2O)c1ccc2c(Br)cccc2c1
2. OC[C@H]1O[C@@]2(CCCN(c3ccccc3Cl)C2)[C@H](O)[C@@H](n2cc(-c3cc(F)c(F)c(F)c3)nn2)[C@H]1O
3. O=C(c1ccncc1)N1CCC[C@]2(C1)O[C@H](CO)[C@H](O)[C@H](n1cc(-c3cc(F)c(F)c(F)c3)nn1)[C@H]2O
4. O=C(N[C@@H]1CCO[C@]12O[C@H](CO)[C@H](O)[C@H](n1cc(-c3cc(F)c(F)c(F)c3)nn1)[C@H]2O)c1cccc2cccnc12

Reply |
25 to 50%
< 25%
< 25%
50 to 75%
